- ASSAYED TARGET: Estrogen receptor (Homo sapiens) (UniProt P03372)
- Sequence (P03372 whole entry, looked up): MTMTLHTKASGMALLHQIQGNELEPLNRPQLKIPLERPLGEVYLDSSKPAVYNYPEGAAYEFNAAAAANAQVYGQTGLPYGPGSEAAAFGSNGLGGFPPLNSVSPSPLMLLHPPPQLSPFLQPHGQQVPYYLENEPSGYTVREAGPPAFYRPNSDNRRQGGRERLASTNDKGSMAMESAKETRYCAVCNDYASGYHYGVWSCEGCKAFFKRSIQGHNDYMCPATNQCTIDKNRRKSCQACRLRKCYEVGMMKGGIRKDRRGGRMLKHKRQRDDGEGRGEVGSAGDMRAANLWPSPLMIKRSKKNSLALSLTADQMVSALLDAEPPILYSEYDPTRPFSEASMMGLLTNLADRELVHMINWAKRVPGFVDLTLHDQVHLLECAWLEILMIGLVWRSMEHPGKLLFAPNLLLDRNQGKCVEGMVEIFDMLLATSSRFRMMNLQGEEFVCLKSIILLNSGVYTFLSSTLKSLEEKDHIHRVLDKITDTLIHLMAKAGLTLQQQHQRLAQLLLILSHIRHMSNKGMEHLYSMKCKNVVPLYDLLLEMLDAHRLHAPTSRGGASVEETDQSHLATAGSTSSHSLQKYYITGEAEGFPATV
- MEASUREMENT PROTOCOL: CCTE_Deisenroth_AIME_96WELL_LUC_Active: CCTE's 96-well Estrogen Receptor Transactivation Assay with AIME metabolic competence (ERTA luciferase; metabolism positive), Deisenroth Lab (AID 2284023)
Results filed as inconclusive are left out. Activity calls are given as the source filed them. The calls were made as follows: active = hit-call score of the fitted dose curve at least 0.9, where 1 is the maximum; inconclusive = response in the unintended direction; inactive = score below 0.9.
Could you please pick one outcome from this set? true (active), false (inactive)

Please let me know the test result on file for `Oc1ccc(/C=C/c2cc(O)cc(O)c2)cc1` .
true

Also, `COc1ccc(-c2coc3cc(O)cc(O)c3c2=O)cc1` please.
true

Also, `Cc1cccc(C(C)(C)C)c1O` please.
false

Also, `COc1ccc(C(=O)c2ccccc2)c(O)c1` please.
true

---

- Read-out: serum amyloid A (SAA), SAA1 (gene 6288)
- MEASUREMENT PROTOCOL: BSK_CASM3C_SAA: BioMAP Diversity Plus: CASM3C Assay for serum amyloid A (SAA) Biomarker Activity (AID 2283049);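 also: SAA protein level quantified by ELISA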
- STATED CONDITIONS: primary human coronary artery smooth muscle cells; actives raise or lower the signal
The source made the active and inactive calls. Rule for the calls: active = hit-call score of the fitted dose curve at least 0.9, where 1 is the maximum; inactive = score below 0.9.
Could you please pick one outcome from this set? yes (1) = active, no (0) = inactive

Please let me know the test result on file for CCCC(C)C(=O)OCC (stereo not given) .
no (0)

Also, `C=CC(=O)OCCCCCCOC(=O)C=C` please.
no (0)

Also, `O=C1CCCCCCCCCCC1` please.
no (0)

Also, `CC(C)[N+](C)(CCOC(=O)C1c2ccccc2Oc2ccccc21)C(C)C` please.
no (0)

Also, `Clc1cc(Cl)c(Cl)c(Cl)c1Cl` please.
no (0)

Also, `CCCCCC1=CCCC1=O` please.
no (0)

Also, `C=C(C)C(=O)OCCCCCCCCCCCC` please.
no (0)

Also, `Nc1ccc(C(=O)O)cc1` please.
no (0)

Also, `CCNc1nc(NC(C)(C)C)nc(OC)n1` please.
no (0)

Also, CC(Cl)COP(=O)(OCC(C)Cl)OCC(C)Cl (stereo not given) please.
no (0)

Also, `C=CC(=O)NC(C)(C)C` please.
no (0)

Also, C=CC(=O)OCC(C)OCC(C)OCC(C)OC(=O)C=C (stereo not given) please.
yes (1)

Also, `CC/C=C\CCOC(=O)c1ccccc1O` please.
yes (1)

Also, `CCCCCCCCCCCC(C)=O` please.
no (0)

Also, `c1ccc2c(c1)[nH]c1ccccc12` please.
no (0)

---

- MEASUREMENT PROTOCOL: CEETOX_H295R_11DCORT_noMTC: CeeTox H295R High-throughput Steroidogenesis Assay for 11-Deoxycortisol (11DCORT), maximum tolerated concentration (MTC) filtered results only (AID 2283911)
- STATED CONDITIONS: actives raise or lower the signal
The source made the active and inactive calls. Rule for the calls: active = hit-call score of the fitted dose curve at least 0.9, where 1 is the maximum; inactive = score below 0.9.
Could you please pick one outcome from this set? 1.0 for active, 0.0 for inactive

Please let me know the test result on file for `CCCCC1C(=O)N(c2ccccc2)N(c2ccccc2)C1=O` .
0.0

Also, `COc1ccc(C(=O)/C(Br)=C\C(=O)O)cc1` please.
1.0

Also, N#Cc1ccc(C2CCCc3cncn32)cc1 (centres undefined) please.
0.0

Also, `CCCC=C(C=O)CC` please.
0.0
